# Test system: BJeLR fibroblast viability, Alamar Blue fluorescence, 48 h
# EXPERIMENT SUMMARY: BJeLR fibroblast growth inhibition, viability readout – cell-based, alamar blue fluorescence, 48 h, cherrypicked samples, dose response (AID 2610);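 also: BJ fibroblasts with hTERT plus SV40 large and small T and HRAS V12; EC50 for loss of viable cells so potency reflects cytotoxic compounds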
Inconclusive results are not listed. Calls of active or inactive are those of the source.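 The calls were made as follows: active = EC50 no more than tenfold above the top concentration tested, with valid fit and all samples agreeing; inconclusive = flat fit at 30 to 70% inhibition, poor fit, or split samples; inactive = EC50 beyond tenfold the top concentration tested.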
Can you answer with just one of these options? yes = active, no = inactive

// below: answered compounds
compound=CC(=O)Nc1ccc(/C=N/Nc2nc3ccccc3[nH]2)cc1 cat=no
compound=CCOc1ccc(N=Cc2c(C)[nH]n(-c3nc4ccccc4[nH]3)c2=O)cc1 cat=no
compound=CNC1=C(N(C(C)=O)c2ccc(Br)cc2)C(=O)c2ccccc2C1=O cat=yes

IN: What was the test verdict on `O=C(N/N=C/c1ccc([N+](=O)[O-])o1)c1cc2ccccc2o1` ?
OUT: yes

IN: Also `COCc1c(C(C)C)nc(C(C)C)c(/C=C/[C@@H](O)C[C@@H](O)CC(=O)O)c1-c1ccc(F)cc1` ?
OUT: yes

IN: Also `O=C(N/N=C/c1cccnc1)c1ccc(NC(=O)C(c2ccccc2)c2ccccc2)cc1` ?
OUT: yes

IN: Also O=C(CCl)Nc1cc(SCC(O)CO)cc([N+](=O)[O-])c1 (centres undefined) ?
OUT: yes

IN: Also COc1cc2c(c(OC)c1OC)-c1ccc(O)c(=O)cc1C(NC(C)=O)CC2 (centres undefined) ?
OUT: yes

----------
# System: BJeLR fibroblast viability, Alamar Blue fluorescence, 48 h
# EXPERIMENT SUMMARY: BJeLR fibroblast growth inhibition, viability readout – cell-based, alamar blue fluorescence, 48 h, cherrypicked samples, dose response (AID 2610);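 also: BJ fibroblasts with hTERT plus SV40 large and small T and HRAS V12; EC50 for loss of viable cells so potency reflects cytotoxic compounds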
Records with an inconclusive call do not appear. Calls of active or inactive are those of the source.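 How the source made its calls: active means EC50 no more than tenfold above the top concentration tested, with valid fit and all samples agreeing; inconclusive means flat fit at 30 to 70% inhibition, poor fit, or split samples; inactive means EC50 beyond tenfold the top concentration tested.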
Can you answer with just one of these options? YES (active), NO (inactive)

compound=CCOc1ccc(CC(=O)Nc2ccc(NC(=O)c3ccco3)cc2)cc1OCC target_system="BJeLR fibroblast viability, Alamar Blue fluorescence, 48 h" cat=YES
compound=Nc1nc(F)nc2c1ncn2[C@@H]1O[C@H](CO)[C@@H](O)[C@H]1O target_system="BJeLR fibroblast viability, Alamar Blue fluorescence, 48 h" cat=YES
compound=Cc1sc2cc3c(c(C(=O)c4ccccc4)[n+]2c1C)-c1cccc2cccc-3c12 target_system="BJeLR fibroblast viability, Alamar Blue fluorescence, 48 h" cat=YES
compound=C/C(=N\Nc1ncc(Cl)cc1Cl)c1ccccn1 target_system="BJeLR fibroblast viability, Alamar Blue fluorescence, 48 h" cat=YES
compound=N#CCc1ccc(NC(=O)/C=C/c2ccc([N+](=O)[O-])o2)cc1 target_system="BJeLR fibroblast viability, Alamar Blue fluorescence, 48 h" cat=YES
compound=COC(=O)C1=C(C)N(Cc2ccccc2)C(=NCc2cccc(C(F)(F)F)c2)N[C@H]1c1cccc(F)c1 target_system="BJeLR fibroblast viability, Alamar Blue fluorescence, 48 h" cat=NO

IN: What was the test verdict on `Cc1cc(N)c2cc(NC(=O)/C=C/c3ccccc3Cl)ccc2n1` ?
OUT: YES

IN: Also `CCOc1ccc2nc(NC(=O)c3ccoc3C)sc2c1` ?
OUT: NO

IN: Also `CN(Cc1cnc2nc(N)nc(N)c2n1)c1ccc(C(=O)N[C@@H](CCC(=O)O)C(=O)O)cc1` ?
OUT: NO

IN: Also `COc1ccccc1-n1cnc2cc(NCc3cccs3)ccc21` ?
OUT: YES

IN: Also `COc1ccc(C(=O)N/N=C(\C)c2ccccn2)cc1OC` ?
OUT: YES
